system: Plasmodium falciparum; assay: Antiplasmodial activity against chloroquine-sensitive Plasmodium falciparum HB3 after 72 hrs by SYBR green 1 assay; assay type: functional, organism-based; conditions: HB3, 72 h
Entry class follows IC50: 0 (below 30 nM), 1 (30 nM to below 60 nM), 2 (60 nM or more)

CCN(CC)CCCNCCCCCCNc1ccnc2cc(Cl)ccc12    2
CCN(CC)CCCNCCCNc1ccnc2cc(Cl)ccc12    0
CCN(CC)C1CCCC(Nc2ccnc3cc(Cl)ccc23)C1 (configuration not stated)    0
CCN(CC)CCCN(CC)CCNc1ccnc2cc(Cl)ccc12    0

## Input Lab note: which band did CC(C)N(CCCCN(CCCCN(C(C)C)C(C)C)c1ccnc2cc(Cl)ccc12)C(C)C land in?
## Output 2

## Input Cool, now CCN(CC)CCCN(CC)CCCCCCNc1ccnc2cc(Cl)ccc12
## Output 2

## Input Cool, now CCN(CC)CCCCN(CCCCN(CC)CC)c1ccnc2cc(Cl)ccc12
## Output 2

## Input Cool, now CC(C)NC1CCCC(Nc2ccnc3cc(Cl)ccc23)C1 (configuration not stated)
## Output 0

## Input Cool, now CC(C)N(CCCN(CCCN(C(C)C)C(C)C)c1ccnc2cc(Cl)ccc12)C(C)C
## Output 1

## Input Cool, now CCN(CC)C1CCC(Nc2ccnc3cc(Cl)ccc23)CC1 (configuration not stated)
## Output 0

## Input Cool, now CCN(CC)CCCNCCCCCNc1ccnc2cc(Cl)ccc12
## Output 1

====

tested on: Plasmodium falciparum; experiment: Antiplasmodial activity against chloroquine-sensitive Plasmodium falciparum HB3 after 72 hrs by SYBR green 1 assay; type: functional, organism-based; details: HB3, 72 h
Catalogue of pIC50 values
Remember the convention: pIC50 equals -log10 of concentration in molar.

Record excerpt, results attached:
CC(C)NC1CCC(Nc2ccnc3cc(Cl)ccc23)CC1 (stereo unspecified)    7.50
CCN(CC)CCCN(CCCN(CC)CC)c1ccnc2cc(Cl)ccc12    6.73
CCN(CC)CCCN(CC)CCCCCNc1ccnc2cc(Cl)ccc12    7.80
CCN(CC)CCCNCCCCNc1ccnc2cc(Cl)ccc12    7.14
CCN(CC)CCCN(CC)CCCNc1ccnc2cc(Cl)ccc12    7.67

Switching to the query record.
## Input Any idea what its pIC50 is? The compound is CCN(CC)CCCN(CC)CCCCNc1ccnc2cc(Cl)ccc12
## Output 7.62

====

test system: Plasmodium falciparum; assay: Selectivity for chloroquine-resistant Plasmodium falciparum Dd2 over chloroquine-sensitive Plasmodium falciparum HB3 as IC50 ratio by SYBR green assay; assay type: functional
Catalogue of Ratio IC50 values
No unit in the answer, only the number.

Record excerpt, results attached:
CC(C)NC1CCCC(Nc2ccnc3cc(Cl)ccc23)C1 (centres undefined)    2.74
CCN(CC)CCCNCCCNc1ccnc2cc(Cl)ccc12    2.06
CCN(CC)CCCN(CCCN(CC)CC)c1ccnc2cc(Cl)ccc12    0.68

Switching to the query record.
## Input Any idea what its Ratio IC50 is? The molecule is CC(C)N(CCCN(CCCN(C(C)C)C(C)C)c1ccnc2cc(Cl)ccc12)C(C)C
## Output 2.26

====

test system: Plasmodium falciparum; experiment: Selectivity for chloroquine-resistant Plasmodium falciparum Dd2 over chloroquine-sensitive Plasmodium falciparum HB3 as IC50 ratio by SYBR green assay; assay type: functional
Give 1.0 when the value for Ratio IC50 is at least 2. Give 0.0 when it is less.

# count of solved cases: 3
CCN(CC)CCCN(CC)CCCCCNc1ccnc2cc(Cl)ccc12    1.0
CC(C)N(CCCCN(CCCCN(C(C)C)C(C)C)c1ccnc2cc(Cl)ccc12)C(C)C    0.0
CC(C)NC1CCC(Nc2ccnc3cc(Cl)ccc23)CC1 (stereo unspecified)    1.0

## Input Could you verify whether the entry CCN(CC)CCCNCCCCCCNc1ccnc2cc(Cl)ccc12 shows Ratio IC50 of no less than 2?
## Output 1.0

## Input Cool, now CCN(CC)CCCCN(CCCCN(CC)CC)c1ccnc2cc(Cl)ccc12
## Output 0.0

## Input Cool, now CCN(CC)CCCN(CC)CCCNc1ccnc2cc(Cl)ccc12
## Output 0.0

====

test system: Plasmodium falciparum; test: Antiplasmodial activity against chloroquine-resistant Plasmodium falciparum FCB after 72 hrs by SYBR green 1 assay; assay type: functional, organism-based
Measurement type: log10 IC50 (log10 of the value in nM)
Quick note: numbers are log10 of IC50, with nM as the unit.

Record excerpt, results attached:
CCN(CC)CCCN(CCCN(CC)CC)c1ccnc2cc(Cl)ccc12    2.27
CCN(CC)CCCN(CC)CCCCCCNc1ccnc2cc(Cl)ccc12    2.42
CC(C)NC1CCC(Nc2ccnc3cc(Cl)ccc23)CC1 (stereo not drawn)    1.82
CC(C)NC1CCCC(Nc2ccnc3cc(Cl)ccc23)C1 (stereo not drawn)    2.04
CC(C)N(CCCCN(CCCCN(C(C)C)C(C)C)c1ccnc2cc(Cl)ccc12)C(C)C    3.35
CCN(CC)CCCNCCCCCNc1ccnc2cc(Cl)ccc12    1.99
CCN(CC)CCCCN(CCCCN(CC)CC)c1ccnc2cc(Cl)ccc12    3.03
CCN(CC)CCCN(CC)CCCNc1ccnc2cc(Cl)ccc12    1.69

## Input Any idea what its log10 IC50 is? The compound is CC(C)N(CCCN(CCCN(C(C)C)C(C)C)c1ccnc2cc(Cl)ccc12)C(C)C
## Output 2.02

## Input Cool, now CCN(CC)CCCN(CC)CCNc1ccnc2cc(Cl)ccc12
## Output 1.72

## Input Cool, now CCN(CC)C1CCC(Nc2ccnc3cc(Cl)ccc23)CC1 (stereo not drawn)
## Output 1.76

## Input Cool, now CCN(CC)CCCNCCCCNc1ccnc2cc(Cl)ccc12
## Output 2.28

## Input Cool, now CCN(CC)C1CCCC(Nc2ccnc3cc(Cl)ccc23)C1 (stereo not drawn)
## Output 2.05

## Input Cool, now CCN(CC)CCCNCCNc1ccnc2cc(Cl)ccc12
## Output 2.16

## Input Cool, now CCN(CC)CCCN(CC)CCCCNc1ccnc2cc(Cl)ccc12
## Output 2.19

## Input Cool, now CCN(CC)CCCNCCCCCCNc1ccnc2cc(Cl)ccc12
## Output 2.33

## Input Cool, now CCN(CC)CCCNCCCNc1ccnc2cc(Cl)ccc12
## Output 1.87

## Input Cool, now CCN(CC)CCCN(CC)CCCCCNc1ccnc2cc(Cl)ccc12
## Output 1.82

====

system: Plasmodium falciparum; experiment: Selectivity index for chloroquine-resistant Plasmodium falciparum FCB to chloroquine-sensitive Plasmodium falciparum GCO3 by SYBR green IC50 ratio; type: functional
Measurement type: Ratio IC50
No unit in the answer, only the number.

Record excerpt, results attached:
CCN(CC)CCCNCCCCNc1ccnc2cc(Cl)ccc12    1.36
CCN(CC)CCCNCCCCCCNc1ccnc2cc(Cl)ccc12    1.67
CCN(CC)CCCN(CC)CCCCCNc1ccnc2cc(Cl)ccc12    1.21
CCN(CC)CCCNCCCCCNc1ccnc2cc(Cl)ccc12    1.42

## Input Any idea what its Ratio IC50 is? The compound is CC(C)NC1CCC(Nc2ccnc3cc(Cl)ccc23)CC1 (stereo not given)
## Output 3.89

====

tested on: Plasmodium falciparum; assay: Selectivity index for chloroquine-resistant Plasmodium falciparum FCB to chloroquine-sensitive Plasmodium falciparum GCO3 by SYBR green IC50 ratio; type: functional
Measurement type: Ratio IC50

CCN(CC)CCCN(CC)CCCCCCNc1ccnc2cc(Cl)ccc12    1.5

Switching to the query record.
## Input Any idea what its Ratio IC50 is? The molecule is CCN(CC)CCCN(CC)CCCCNc1ccnc2cc(Cl)ccc12
## Output 1.78

====

tested on: Plasmodium falciparum; experiment: Antiplasmodial activity against chloroquine-resistant Plasmodium falciparum Dd2 after 72 hrs by SYBR green 1 assay; type: functional, organism-based; settings: Dd2, 72 h
Catalogue of pIC50 values
Remember the convention: pIC50 equals -log10 of concentration in molar.

CC(C)NC1CCC(Nc2ccnc3cc(Cl)ccc23)CC1 (stereo unspecified)    7.12

## Input Reported pIC50 for Plasmodium falciparum, given CCN(CC)CCCN(CC)CCCNc1ccnc2cc(Cl)ccc12 ?
## Output 7.55

## Input Cool, now CCN(CC)CCCNCCNc1ccnc2cc(Cl)ccc12
## Output 6.89

## Input Cool, now CC(C)N(CCCCN(CCCCN(C(C)C)C(C)C)c1ccnc2cc(Cl)ccc12)C(C)C
## Output 5.59

## Input Cool, now CC(C)NC1CCCC(Nc2ccnc3cc(Cl)ccc23)C1 (stereo unspecified)
## Output 7.12

## Input Cool, now CCN(CC)CCCN(CC)CCCCCCNc1ccnc2cc(Cl)ccc12
## Output 6.56

====

Catalogue of IC50 values
system: Plasmodium falciparum; assay: Antiplasmodial activity against chloroquine-resistant Plasmodium falciparum Dd2 after 72 hrs by SYBR green 1 assay; type: functional, organism-based; conditions: Dd2, 72 h
Return type: number; implicit unit nM.

Record excerpt, results attached:
CCN(CC)CCCN(CC)CCNc1ccnc2cc(Cl)ccc12    31.2
CCN(CC)CCCN(CCCN(CC)CC)c1ccnc2cc(Cl)ccc12    128
CCN(CC)CCCN(CC)CCCCNc1ccnc2cc(Cl)ccc12    84.6
CCN(CC)C1CCCC(Nc2ccnc3cc(Cl)ccc23)C1 (configuration not stated)    80
CCN(CC)CCCN(CC)CCCCCNc1ccnc2cc(Cl)ccc12    43.4

## Input Reported IC50 for Plasmodium falciparum, given CCN(CC)CCCNCCCNc1ccnc2cc(Cl)ccc12 ?
## Output 56.3

## Input Cool, now CCN(CC)C1CCC(Nc2ccnc3cc(Cl)ccc23)CC1 (configuration not stated)
## Output 51.8
